Attribution: patent USRE49735E1

Listed compounds paired with reported pEC50
- assayTarget: human mGluR5A (Homo sapiens)
- methodDescription: mGluR5 FLIPR Assay
- conditionsUsed: positive modulator activity; HEK293 (ZF) cells with human mGluR5A and rat GLAST; Ca++ response to ~EC10 glutamate
- Procedure: HEK293 (ZF) cells stably transfected with human mGluR5A (pIRES neo) and the rat glutamate-aspartate transporter (GLAST; pIRES puro) are grown in a monolayer culture at 37° C. in 5% CO2 and fed with Minimum Essential Medium (MEM) supplemented with 10% dialysed fetal bovine serum. […] Test compounds are incubated with cells in the presence of dye for 10 minutes prior to being read on the FLIPR platform (Molecular Devices). […]
pEC50: −log10 of the molar value.

O=C1N[C@H](c2cncc(C#Cc3ccccc3)c2)[C@@H](c2cccc(Cl)c2Cl)O1 (single isomer, unassigned); > 7.00

Task item: Using the record for "O=C1N[C@@H](c2cccc(C#Cc3cccnc3)c2)[C@H](c2ccncn2)O1" , report its pEC50.
Reply: < 6.00

Task item: Using the record for "Cn1nnc([C@H]2OC(=O)N[C@@H]2c2cccc(C#Cc3ccccc3)c2)n1" , report its pEC50.
Reply: < 6.00

Task item: Using the record for "O=C1N[C@H](c2cncc(C#Cc3ccncn3)c2)[C@@H](c2cc(F)ccc2F)O1" , report its pEC50.
Reply: < 6.00

Task item: Using the record for "O=C1N[C@H](c2cncc(C#Cc3ccnc(F)c3)c2)[C@@H](c2ccc(F)cc2)O1" , report its pEC50.
Reply: > 7.00

Task item: Using the record for Cc1cccc([C@@H]2OC(=O)N[C@H]2c2cccc(C#Cc3ccccc3)c2)c1 (racemic) , report its pEC50.
Reply: > 7.00

Task item: Using the record for "O=C1N[C@H](c2cncc(C#Cc3cccc(F)c3)c2)[C@@H](c2cccc(F)c2F)O1" , report its pEC50.
Reply: 6.00 to 7.00

Task item: Using the record for "COc1cccc([C@H]2OC(=O)N[C@@H]2c2cccc(C#Cc3cc(F)cc(F)c3)c2)c1" , report its pEC50.
Reply: 6.00 to 7.00

====

- assayTarget: human mGluR5A (Homo sapiens, UniProt P41594)
- Sequence (P41594 21-1180 isoform P41594-2): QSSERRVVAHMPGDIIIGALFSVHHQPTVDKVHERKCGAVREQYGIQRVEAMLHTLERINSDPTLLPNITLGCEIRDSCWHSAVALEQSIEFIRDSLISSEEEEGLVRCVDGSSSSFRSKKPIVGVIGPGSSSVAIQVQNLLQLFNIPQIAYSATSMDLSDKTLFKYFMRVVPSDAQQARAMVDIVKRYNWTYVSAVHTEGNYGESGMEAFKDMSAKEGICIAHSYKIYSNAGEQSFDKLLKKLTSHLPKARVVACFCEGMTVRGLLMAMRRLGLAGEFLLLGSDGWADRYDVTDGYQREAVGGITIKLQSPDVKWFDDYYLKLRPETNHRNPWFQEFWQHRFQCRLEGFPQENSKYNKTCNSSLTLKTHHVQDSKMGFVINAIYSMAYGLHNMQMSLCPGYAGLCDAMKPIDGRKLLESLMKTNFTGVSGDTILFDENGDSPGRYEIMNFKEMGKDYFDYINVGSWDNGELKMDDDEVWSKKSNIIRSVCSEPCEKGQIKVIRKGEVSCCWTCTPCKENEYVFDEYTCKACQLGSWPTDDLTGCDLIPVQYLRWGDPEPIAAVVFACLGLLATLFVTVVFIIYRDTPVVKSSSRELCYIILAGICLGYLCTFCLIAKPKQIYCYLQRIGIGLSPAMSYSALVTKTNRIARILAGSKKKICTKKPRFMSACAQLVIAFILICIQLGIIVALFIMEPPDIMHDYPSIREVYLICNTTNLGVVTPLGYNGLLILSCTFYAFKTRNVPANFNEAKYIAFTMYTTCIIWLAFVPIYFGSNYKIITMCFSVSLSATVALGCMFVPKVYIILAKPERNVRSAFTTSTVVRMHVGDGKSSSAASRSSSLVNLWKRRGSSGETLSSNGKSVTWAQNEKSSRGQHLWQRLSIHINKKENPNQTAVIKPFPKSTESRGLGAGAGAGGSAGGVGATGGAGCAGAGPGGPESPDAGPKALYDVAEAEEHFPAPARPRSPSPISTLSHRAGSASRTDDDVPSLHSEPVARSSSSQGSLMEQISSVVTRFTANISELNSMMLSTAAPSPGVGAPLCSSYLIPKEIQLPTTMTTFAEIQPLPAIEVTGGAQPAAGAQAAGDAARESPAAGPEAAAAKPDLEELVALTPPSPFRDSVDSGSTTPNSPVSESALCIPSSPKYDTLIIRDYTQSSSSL
- methodDescription: mGluR5 FLIPR Assay
- conditionsUsed: positive modulator activity; HEK293 (ZF) cells with human mGluR5A and rat GLAST; Ca++ response to ~EC10 glutamate
pEC50: −log10 of the molar value.
readoutName: pEC50

Known pEC50 results, listed for orientation:
O=C1N[C@H](c2cncc(C#Cc3ccccc3)c2)[C@@H](c2cc(F)cc(F)c2)O1; > 7.00
C[C@]1(c2cncc(C#Cc3ccccc3)c2)NC(=O)O[C@@H]1c1ccc(F)cc1; > 7.00
Cc1ccc([C@H]2OC(=O)N[C@@H]2c2cccc(C#Cc3ccccc3)c2)cc1C; > 7.00

Task item: Using the record for "O=C1N[C@H](c2cncc(C#Cc3ccnnc3)c2)[C@@H](c2cc(F)ccc2F)O1" , report its pEC50.
Reply: < 6.00

Task item: Using the record for "COc1cccc([C@H]2OC(=O)N[C@@H]2c2cccc(C#Cc3cccnc3F)c2)c1" , report its pEC50.
Reply: > 7.00

====

Listed compounds paired with reported pEC50
- assayTarget: human mGluR5A (Homo sapiens, UniProt P41594)
- methodDescription: mGluR5 FLIPR Assay
- conditionsUsed: positive modulator activity; HEK293 (ZF) cells with human mGluR5A and rat GLAST; Ca++ response to ~EC10 glutamate
pEC50: −log10 of the molar value.

Known pEC50 results, listed for orientation:
COc1cccc([C@H]2OC(=O)N[C@@H]2c2cccc(C#Cc3ccc(SC)cc3)c2)c1; < 6.00
O=C1N[C@H](c2cncc(C#Cc3cccc(F)c3)c2)[C@@H](c2cc(F)ccc2F)O1; > 7.00
O=C1N[C@@H](c2cccc(C#Cc3ccccc3)c2)[C@H](c2cccs2)O1 (racemic) [Example 103]; > 7.00
Cc1ccc([C@@H]2OC(=O)N[C@H]2c2cccc(C#Cc3ccccc3)c2)cc1 [Example 108]; < 6.00

Task item: Using the record for "C[C@@]1(c2cc(F)ccc2F)OC(=O)N[C@H]1c1cncc(C#Cc2ccccc2)c1" , report its pEC50.
Reply: 6.00 to 7.00

Task item: Using the record for "COc1cccc([C@H]2OC(=O)N[C@@H]2c2cccc(C#Cc3ccc(F)cc3F)c2)c1" , report its pEC50.
Reply: 6.00 to 7.00

Task item: Using the record for "C[C@]1(c2cccc(F)c2)OC(=O)N[C@H]1c1cncc(C#Cc2ccccc2)c1" , report its pEC50.
Reply: 6.00 to 7.00

Task item: Using the record for "COc1cncc(C#Cc2cccc([C@H]3NC(=O)O[C@@H]3c3cccc(OC)c3)c2)c1" , report its pEC50.
Reply: < 6.00

Task item: Using the record for "O=C1N[C@H](c2cncc(C#Cc3ccccn3)c2)[C@@H](c2cc(F)ccc2F)O1" , report its pEC50.
Reply: < 6.00

Task item: Using the record for "O=C1N[C@H](c2ccnc(C#Cc3cncc(F)c3)c2)[C@@H](c2cccnc2)O1" , report its pEC50.
Reply: < 6.00

Task item: Using the record for "C[C@]1(c2cc(F)ccc2F)OC(=O)N[C@H]1c1cncc(C#Cc2ccccc2)c1" , report its pEC50.
Reply: 6.00 to 7.00

Task item: Using the record for "O=C1N[C@@H](c2cccc(C#Cc3ccccc3)c2)[C@H](c2nc(-c3ccncc3)no2)O1" , report its pEC50.
Reply: < 6.00

Task item: Using the record for O=C1N[C@H](c2cncc(C#Cc3ccccc3)c2)[C@@H](c2ccnnc2)O1 (single isomer, unassigned) , report its pEC50.
Reply: > 7.00

Task item: Using the record for "O=C1N[C@H](c2cc(C#Cc3cncc(F)c3)cnc2F)[C@@H](c2cccc(F)c2)O1" , report its pEC50.
Reply: > 7.00

====

- assayTarget: UniProt P41594
- methodDescription: mGluR5 FLIPR Assay
- conditionsUsed: positive modulator activity; HEK293 (ZF) cells with human mGluR5A and rat GLAST; Ca++ response to ~EC10 glutamate
pEC50: −log10 of the molar value.
Listed molecules paired with reported pEC50

Known pEC50 results, listed for orientation:
Cc1cccc(C#Cc2cncc([C@H]3NC(=O)O[C@@H]3c3cc(F)ccc3F)c2)c1; < 6.00
O=C1N[C@H](c2cccc(C#Cc3ccccc3)n2)[C@@H](c2ccccc2)O1 (single isomer, unassigned); > 7.00
Cn1nccc1[C@@H]1OC(=O)N[C@H]1c1cncc(C#Cc2ccccc2)c1; < 6.00

Next up:
Task item: Using the record for "COc1cccc(C#Cc2cccc([C@H]3NC(=O)O[C@@H]3c3cccc(OC)c3)c2)c1" , report its pEC50.
Reply: > 7.00

====

Listed compounds paired with reported pEC50
- assayTarget: human mGluR5A (Homo sapiens, UniProt P41594)
- methodDescription: mGluR5 FLIPR Assay
- conditionsUsed: positive modulator activity; HEK293 (ZF) cells with human mGluR5A and rat GLAST; Ca++ response to ~EC10 glutamate
pEC50: −log10 of the molar value.

Known pEC50 results, listed for orientation:
O=C1N[C@@H](c2cccc(C#Cc3ccccc3)c2)[C@H](c2nc(-c3ccccn3)no2)O1; < 6.00
COc1cccc([C@H]2OC(=O)N[C@@H]2c2cccc(C#Cc3cc4ccccc4cn3)c2)c1; < 6.00
O=C1N[C@H](c2cccc(C#Cc3ccccc3)c2)[C@@H](c2cccc(F)c2)O1 (racemic); > 7.00
O=C1N[C@H](c2nc(C#Cc3ccccc3)ccc2F)[C@@H](c2ccccc2)O1 (single isomer, unassigned); < 6.00
O=C1N[C@H](c2cccc(C#Cc3cccnc3)c2)[C@H](c2cnccn2)O1; < 6.00
O=C1N[C@H](c2cccc(C#Cc3ccnc(F)c3)n2)[C@@H](c2ccc(F)cc2)O1 (single isomer, unassigned); > 7.00

Task item: Reported pEC50 for human mGluR5A (Homo sapiens, UniProt P41594), given "C[C@@]1(c2cncc(C#Cc3ncccc3F)c2)NC(=O)O[C@H]1c1ccccc1" ?
Reply: < 6.00

Task item: Reported pEC50 for human mGluR5A (Homo sapiens, UniProt P41594), given "O=C1N[C@H](c2cncc(C#Cc3cccnc3)c2)[C@@H](c2cc(F)ccc2F)O1" ?
Reply: > 7.00

====

- assayTarget: human mGluR5A (Homo sapiens)
- methodDescription: mGluR5 FLIPR Assay
- conditionsUsed: positive modulator activity; HEK293 (ZF) cells with human mGluR5A and rat GLAST; Ca++ response to ~EC10 glutamate
pEC50: −log10 of the molar value.
Listed molecules paired with reported pEC50

Known pEC50 results, listed for orientation:
C[C@@]1(c2cccc(C#Cc3ccccc3)n2)NC(=O)O[C@@H]1c1ccccc1F (single isomer, unassigned); 6.00 to 7.00
O=C1N[C@H](c2cncc(C#Cc3ccccc3)c2)[C@@H](c2ccccc2F)O1; > 7.00
COc1cccc([C@@H]2OC(=O)N[C@H]2c2cccc(C#Cc3ccccc3F)c2)c1 (stereo in doubt); < 6.00
O=C1N[C@@H](c2cccc(C#Cc3ccccc3)c2)[C@H](c2cccnc2)O1 (relative stereo) [Example 116]; > 7.00
COc1cccc([C@H]2OC(=O)N[C@@H]2c2cccc(C#Cc3ccc(F)cn3)c2)c1; < 6.00

Task item: Using the record for "COc1cccc([C@H]2OC(=O)N[C@@H]2c2cccc(C#Cc3ccnc(C#N)c3)c2)c1" , report its pEC50.
Reply: < 6.00

Task item: Using the record for "C[C@]1(c2ccc(F)cc2)OC(=O)N[C@@H]1c1cncc(C#Cc2cncc(F)c2)c1" , report its pEC50.
Reply: > 7.00
